Value source: PubChem BioAssay

List of z-score values.
assay: A549 cell viability effects, profiling panel, calcein-AM fluorescence, 48 h, basal (AID 1162); conditions: higher = more signal; also: test concentration not given here
Outcome measure: z-score

[[record]]
compound = "O=C1C2C=CC(C(O)C3CCCCC3)N(Nc3ccc([N+](=O)[O-])cc3)C2C(=O)N1c1ccccc1 (stereo not given)"
measured_value = -0.0334

[[record]]
compound = "O=C1NC(=O)C2C1C=CC(C(O)c1cccc3ccccc13)N2Nc1ccccn1 (stereo not given)"
measured_value = 0.428

[[record]]
compound = "N#Cc1ccc(NN2C(C(O)c3c(F)cccc3Cl)C=CC3C(=O)N(c4ccccc4)C(=O)C32)cc1 (stereo not given)"
measured_value = 0.212

[[record]]
compound = "CC(C)OC(=O)C=C1C[C@@H](c2ccccc2C(F)(F)F)O[C@@H](c2ccccc2C(F)(F)F)O1"
measured_value = -0.677

[[record]]
compound = "O=C1c2ccccc2[C@](Cc2ccccc2I)(C(=O)NC2CC2)[C@H](c2ccc(CO)cc2)N1Cc1ccccc1"
measured_value = 0.465

[[record]]
compound = "CCCC[C@@H]1C[C@H]1[C@@H](NC(=O)c1ccco1)c1ccc(C(=O)OC)cc1"
measured_value = -1.06

[[record]]
compound = "Cc1ccc(S[C@]2(C(=O)NCCN3CCOCC3)CC(=O)N(Cc3ccccc3)[C@@H]2c2ccc(CO)cc2I)cc1"
measured_value = -0.242

[[record]]
compound = "CC(=O)N1Cc2ccccc2C[C@@]2(COC(c3ccc(OCCCO)cc3)=N2)C1=O"
measured_value = 1.23

[[record]]
compound = "Cc1ccc(S[C@]2(C(=O)NC3CC3)CC(=O)N(C3Cc4ccccc4C3)[C@@H]2c2ccc(CO)cc2)cc1"
measured_value = 3.2

[[record]]
compound = "C=C(CCCC)C(=O)CC[C@@H](OC(=O)c1cccnc1)c1ccc(CO)o1"
measured_value = 0.274

[[record]]
compound = "COc1ccc(C(=O)Nc2ccc(CN3C(=O)[C@@]4(O[C@@H](CC(=O)N5CCC[C@H]5CO)[C@H]([Si](C)(C)c5ccc(OC)cc5)[C@H]4C)c4ccccc43)cc2)cc1"
measured_value = 0.571

[[record]]
compound = "COCCOC(=O)N1C(=O)[C@@]2(c3cc(C#CCCO)ccc31)[C@H](C(=O)N1CCN(c3ncccn3)CC1)[C@H]1C(=O)O[C@H](c3ccccc3)[C@H](c3ccccc3)N1[C@@H]2c1ccccc1OCCO"
measured_value = 0.703

[[record]]
compound = "COCCOC(=O)N1C(=O)[C@@]2(c3cc(C#CC4=CCCCC4)ccc31)[C@H](C(=O)Nc1nc3ccccc3s1)[C@H]1C(=O)O[C@H](c3ccccc3)[C@H](c3ccccc3)N1[C@@H]2c1ccccc1OCCO"
measured_value = -0.812

[[record]]
compound = "COCCCN1C(=O)[C@@]2(Cc3ccccc31)c1ccccc1C(=O)N(Cc1ccccc1C(F)(F)F)[C@H]2c1ccc(CO)cc1"
measured_value = -0.84

[[record]]
compound = "C[C@@H]1ON(c2cccc(C(=O)OC(C)(C)C)c2)[C@H](c2ccc(Br)cc2)[C@H]1C(=O)N1C(=O)OC[C@H]1Cc1ccccc1"
measured_value = 0.407


----------
assay: small-molecule microarray binders of probe aShh, primary screen, biochemical, biotinylated probe, 635/667 nm fluorescence (AID 1114); conditions: higher = more signal;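 also: probe is biotin-labelled aShh protein from a stem cell growth factor screen; measures binding of labelled protein to compounds printed on the slide; score merges feature fluorescence at 667 nm with signal-to-noise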
Listing: composite z-score of selected molecules
Outcome measure: composite z-score

[[record]]
smiles_representation = "CCCCc1cn(C[C@H](Cc2ccccc2)NC(=O)N[C@H](CO)CCc2oc(C(C)=O)c(C(=O)OC)c2C(=O)OC)nn1"
measured_value = 0.184

[[record]]
smiles_representation = "COC(=O)c1c(CC[C@@H](CO)NC(=O)N2CCC[C@H]2Cn2cc(-c3ccccn3)nn2)oc(C(C)=O)c1C(=O)OC"
measured_value = -0.0474

[[record]]
smiles_representation = "C=CCOC(=O)[C@H]1[C@@H]2C(=O)O[C@@H](c3ccccc3)[C@@H](c3ccccc3)N2[C@@H](c2ccc(OCCOC(=O)[C@@H]3C[C@@H]4C(=O)N[C@@H](CCCCN(C)C)C(=O)N4[C@@H]3c3ccc(O)cc3)cc2)[C@]12C(=O)Nc1ccc(I)cc12"
measured_value = 0.462


----------
experiment: E. coli acrAB mutant growth effects, primary screen, E. coli filamentation inducers, strain DRC39, OD650, 24 h (AID 1178); conditions: higher = more signal, called active from +8 up or from −8 down;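 also: growth measured as culture turbidity by optical density at 650 nm; test concentration not given here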
Outcome measure: z-score

[[record]]
smiles_representation = "C[C@]1(C(=O)NC2CC2)c2ccccc2C(=O)N(Cc2cc(C(F)(F)F)cc(C(F)(F)F)c2)[C@H]1c1ccc(CO)cc1"
measured_value = 1.11

[[record]]
smiles_representation = "CN(C)CCCCCCNC(=O)[C@@H]1C[C@@H]2C(=O)N[C@@H](CCCCN)C(=O)N2[C@@H]1c1cccc(OCCO)c1"
measured_value = 0.731

[[record]]
smiles_representation = "CN1C(=O)[C@]2(Cc3ccccc3)N=C(c3ccc(OCCCO)cc3)O[C@@H]2c2ccccc21"
measured_value = 0.757

[[record]]
smiles_representation = "[N-]=[N+]=Nc1ccccc1C[C@]1(C(N)=O)N=C(c2ccc(OCCCO)cc2)O[C@H]1c1ccccc1"
measured_value = 0.0314

[[record]]
smiles_representation = "COCCOC(=O)N1C(=O)[C@@]2(c3cc(C#CCCO)ccc31)[C@H](C(=O)Nc1nc3ccccc3s1)[C@H]1C(=O)O[C@H](c3ccccc3)[C@H](c3ccccc3)N1[C@@H]2c1ccc(OCCO)cc1"
measured_value = 0.348

[[record]]
smiles_representation = "Cc1ccc(S[C@]2(C(=O)NCC(C)C)CC(=O)N(Cc3cc(C(F)(F)F)cc(C(F)(F)F)c3)[C@@H]2c2ccc(CO)cc2I)cc1"
measured_value = -0.155

[[record]]
smiles_representation = "CC(C)OC(=O)C=C1C[C@@H](c2ccccc2C(F)(F)F)O[C@@H](c2ccccc2C(F)(F)F)O1"
measured_value = -1.23


----------
target: Torsin-1A (Homo sapiens) (UniProt O14656); experiment: torsin A binders from cell lysate, primary screen, small-molecule microarray, wild-type, 635/667 nm (AID 1149); settings: COS7 hTOR1A-WT lysate, 635 nm fluorescence, higher = more signal
Sequence (O14656 whole entry, looked up): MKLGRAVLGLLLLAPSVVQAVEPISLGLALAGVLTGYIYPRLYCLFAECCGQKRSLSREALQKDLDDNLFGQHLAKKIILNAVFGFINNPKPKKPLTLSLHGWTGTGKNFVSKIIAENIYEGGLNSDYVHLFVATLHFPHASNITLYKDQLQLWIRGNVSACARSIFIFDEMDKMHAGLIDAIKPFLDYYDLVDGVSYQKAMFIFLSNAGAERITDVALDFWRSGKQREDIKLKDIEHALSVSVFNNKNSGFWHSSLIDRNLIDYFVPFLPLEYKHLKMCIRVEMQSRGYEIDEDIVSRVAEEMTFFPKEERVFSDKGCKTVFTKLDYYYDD
Measured composite z-score of individual entries
Outcome measure: composite z-score

[[record]]
compound = "O=C1OCCC/C=C\\[C@H]2OC34C=CCN(c5ccc6ccccc6c5)C(=O)[C@H]3N(CCCCCCO)C(=O)[C@@H]4C12 (some centres not stated)"
measured_value = -1.12

[[record]]
compound = "O=C1OCC=C[C@H]2OC34C=CCN(CCN5CCOCC5)C(=O)[C@H]3N(CCCO)C(=O)[C@@H]4[C@@H]12 (some centres not stated)"
measured_value = 0.267

[[record]]
compound = "CN1C2C=C(CCCO)C(C3C(=O)N(C(N)=O)C(=O)C32)C1c1ccc(CN2CCCC2)cc1 (configuration not stated)"
measured_value = -0.14

[[record]]
compound = "CC(CO)N1C(=O)[C@@H]2C3C(=O)OCCC/C=C\\[C@H]3OC23C=CCN(c2ccc4ccccc4c2)C(=O)[C@@H]13 (some centres not stated)"
measured_value = -1.72

[[record]]
compound = "C=CCN1C(=O)[C@@]2(O[C@@H](CCO)[C@H]([Si](C)(C)c3ccc(OC)cc3)[C@H]2C)c2cc(NC(=O)c3ccc(OC)cc3)ccc21"
measured_value = 0.214

[[record]]
compound = "N#Cc1ccc(NN2C(C(O)c3c(F)cccc3Cl)C=CC3C(=O)N(c4ccccc4)C(=O)C32)cc1 (configuration not stated)"
measured_value = 0.513

[[record]]
compound = "C=CCN1C(=O)[C@]2(O[C@H](CCO)[C@@H]([Si](C)(C)c3ccc(OC)cc3)[C@@H]2C)c2cc(N3CCCCC3=O)ccc21"
measured_value = 1.1


----------
assay: basal S. cerevisiae growth modulation, no modifier, primary screen, OD600, strain BY4716, 24 h, basal condition (AID 1173); details: OD600, 24 h, higher = more signal, called active from +8 up or from −8 down
z-score vs 0.1: at or above is rule met, below is rule not met.

[[record]]
molecule = "Cc1ccc(C(C)CC(O)C2C=CC3C(=O)N(c4ccccc4)C(=O)C3N2Nc2ccc([N+](=O)[O-])cc2)o1 (stereo not drawn)"
class = "rule met"

[[record]]
molecule = "CC(C)C[C@@H]1NC(=O)[C@@H]2C[C@H](C(=O)NCCCCCN)[C@H](c3cccc(OCCO)c3)N2C1=O"
class = "rule not met"

[[record]]
molecule = "C=CCN(Cc1ccccc1)C(=O)C(c1cccs1)N(CCOCCO)C(=O)/C=C\\C(=O)O (stereo not drawn)"
class = "rule not met"

[[record]]
molecule = "COC(=O)[C@@]1(Cc2ccc(F)cc2)[C@H]2c3cc(C(=O)N(C)C)n(CC4CC4)c3C[C@H]2CN1C(=O)c1ccccc1"
class = "rule met"

[[record]]
molecule = "CC(C)C(CO)N1C(=O)[C@@H]2[C@H]3C(=O)OCC=C[C@H]3OC23C=CCN(C(C)C)C(=O)[C@@H]13 (stereo partly drawn)"
class = "rule met"

[[record]]
molecule = "CC(C)(C)OC(=O)CC[C@]12N=C(c3ccc(OCCCO)cc3)O[C@H]1c1ccccc1N(CCS(=O)(=O)c1ccccc1)C2=O"
class = "rule met"

[[record]]
molecule = "C=CCN1C(=O)[C@@]2(O[C@@H](CCO)[C@H]([Si](C)(C)c3ccc(OC)cc3)[C@H]2C)c2cc(NC(=O)c3ccc(OC)cc3)ccc21"
class = "rule not met"

[[record]]
molecule = "C=C(COC)/C(=C/C[C@@H](OC(C)=O)c1ccc(CO)o1)c1cnc2ccccc2c1"
class = "rule not met"

